Numbers sourced from PubChem BioAssay (NCATS).

# Measurement Notes: qHTS assay for cell viability of HEK293 cells (AID 743288); also: % is scaled to controls: 0 for no effect and ±100 for the full control effect; nearly all actives have a fitted effect of over 50% in size
# Condition Details: ATP luminescence (CellTiter-Glo), 18 h; stronger effect = lower value
Records with an inconclusive call do not appear.
Response field label takes rule met when max response is strictly below -10% and rule not met in all other cases.

Prompt: Say whether its max response is strictly beneath -10%. Entry: C/C(=C\c1ccc(C(=O)O)cc1)c1ccc2c(c1)C(C)(C)CCC2(C)C
Response: rule met

Prompt: Criterion: max response strictly below -10%. Is it met by CC(=O)C(C)=O ?
Response: rule not met

Prompt: Does CCCc1c(OCCCOc2ccc(OCC(=O)O)cc2)ccc(C(C)=O)c1O have max response strictly under -10%?
Response: rule not met

Prompt: Field: below-cutoff. Rule: recorded max response strictly less than -10%. Subject: CC1=C(/C=C/C(C)=C/C=C/C(C)=C\C(=O)O)C(C)(C)CCC1
Response: rule not met

Prompt: Record CCCCCCCCCCCCCCSCC(=O)O : is its max response strictly below -10%?
Response: rule met

###

# Tgt: Thyrotropin-releasing hormone receptor (Homo sapiens) (UniProt P34981)
# Sequence (P34981 whole entry, looked up): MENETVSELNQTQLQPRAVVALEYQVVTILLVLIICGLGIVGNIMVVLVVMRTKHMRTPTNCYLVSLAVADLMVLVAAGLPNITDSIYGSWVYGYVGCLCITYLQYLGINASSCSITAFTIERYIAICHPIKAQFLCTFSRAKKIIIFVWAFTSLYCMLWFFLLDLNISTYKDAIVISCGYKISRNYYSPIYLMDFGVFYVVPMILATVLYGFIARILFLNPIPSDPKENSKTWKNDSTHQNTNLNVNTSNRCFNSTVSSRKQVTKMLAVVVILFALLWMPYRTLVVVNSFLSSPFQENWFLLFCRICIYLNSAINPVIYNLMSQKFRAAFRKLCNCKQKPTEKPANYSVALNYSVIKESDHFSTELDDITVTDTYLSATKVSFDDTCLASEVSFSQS
# Measurement Notes: qHTS for Small Molecule Agonists and Allosteric Enhancers of Human TRH Receptor: Validation Screen for Agonists (AID 493127);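 also: intracellular calcium rise by fluo-8 fluorescence before TRH EC20 addition; 0% is about no effect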
# Condition Details: TRH receptor agonist cell assay; at 2 µM; stronger effect = higher value
Active and inactive are the calls of the source.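 How the source made its calls: active means calcium activation more than 3 SD above the typical response in the agonist read; inactive means the rest.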
Exercise: state measured activation for each of the molecules provided.

O=C(O)C1=CCNCC1 : 1.25% (inactive)
N[C@H](C(=O)O)[C@H]1C[C@@H]1C(=O)O : 0.812% (inactive)
Cc1cccc(C(=O)NCN2CCN(c3ccccc3C#N)CC2)c1 : 0.562% (inactive)

Please supply activation for each of the following items, keeping them in order.
1. Cc1nc2c(OCc3ccccc3)cccn2c1CC#N
2. Cn1c(=O)[nH]c2ncn(C)c2c1=O
3. CC(N)=O

Response:
1: 0.25% (inactive); 2: 0.188% (inactive); 3: 0.25% (inactive)

Dear colleague, could you please provide activation for the molecules listed below?
1. CC(=O)O[C@H]1CC2(C)[C@@H](C[C@@H](O)[C@H]3[C@@]4(C)CC[C@@H](O)[C@@H](C)[C@@H]4CC[C@@]32C)C1=C(CCC=C(C)C)C(=O)O (some centres undefined)
2. CC(C)(C)c1cc(/C=C(\C#N)C(N)=S)cc(C(C)(C)C)c1O
3. Nn1nnc2ccccc21
4. CN(C)C(=O)/N=N/C(=O)N(C)C
5. Nc1nc2[nH]c(=O)cnc2c(=O)[nH]1

Response:
1.06% (inactive)
10.6% (inactive)
1.12% (inactive)
0.75% (inactive)
0.312% (inactive)

###

# Tgt: Arylsulfatase A (Homo sapiens) (UniProt P15289)
# Sequence (P15289 whole entry, looked up): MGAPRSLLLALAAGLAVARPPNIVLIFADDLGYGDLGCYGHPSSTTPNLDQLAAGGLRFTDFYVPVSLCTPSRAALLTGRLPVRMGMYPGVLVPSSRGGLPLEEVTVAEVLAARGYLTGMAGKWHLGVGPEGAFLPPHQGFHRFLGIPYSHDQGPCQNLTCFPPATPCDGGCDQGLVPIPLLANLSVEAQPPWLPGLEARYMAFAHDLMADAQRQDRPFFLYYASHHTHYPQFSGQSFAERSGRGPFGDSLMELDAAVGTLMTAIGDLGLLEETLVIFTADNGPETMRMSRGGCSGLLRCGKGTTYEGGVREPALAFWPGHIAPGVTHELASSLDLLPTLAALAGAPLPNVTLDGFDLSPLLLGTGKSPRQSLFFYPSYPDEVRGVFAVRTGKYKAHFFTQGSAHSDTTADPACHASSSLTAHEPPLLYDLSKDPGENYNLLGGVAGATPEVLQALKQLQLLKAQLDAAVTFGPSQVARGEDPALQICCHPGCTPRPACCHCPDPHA
# Measurement Notes: qHTS screen for enhancers of Arylsulfatase A (ASA1): LOPAC Validation Assay (AID 720538)
# Condition Details: ASA enzyme activity, LOPAC qHTS enhancer assay; series mostly up to 57.5 µM
Inconclusive results are not listed. Calls of active or inactive are those of the source. Calls come from the whole dose curve; as a rule, active = well fitted activation curve with a large enough effect; inconclusive = small, poorly fitted or top-dose-only effect; inactive = no such curve, though single readings can be large or run the other way.
Attribute Measured: outcome

Examples with their reported outcome follow.
COc1cc(/C=C(\C#N)C(=O)Nc2nnc(C(F)(F)F)s2)ccc1OCc1ccc(C(F)(F)F)cc1C(F)(F)F : inactive
CCCn1c(=O)c2[nH]c(C3CCCC3)nc2n(CCC)c1=O : inactive
CCCCCCCCCCC(C)(C)C(=O)Nc1c(OC)cc(OC)cc1OC : inactive
Fc1ccc(CN(C2=NCCN2)c2c(Cl)cccc2Cl)cc1 : inactive
CCCCOC(=O)NS(=O)(=O)c1sc(CC(C)C)cc1-c1ccc(Cn2c(CC)nc3c(C)cc(C)nc32)cc1 : inactive
CC(N)(Cc1ccc(O)c(O)c1)C(=O)O (stereo unspecified) : inactive
N[C@@H](CCCC(=O)O)C(=O)O : inactive
Brc1c(Br)c(Br)c2[nH]cnc2c1Br : inactive
CC(N)(Cc1ccc(O)cc1)C(=O)O (stereo unspecified) : inactive
CNC(=O)c1cc2c(cn1)[nH]c1ccccc12 : inactive

Now consider a different compound.
CSc1nc(N)c2ncn([C@@H]3O[C@H](COP(=O)(O)OP(=O)(O)O)C(O)[C@H]3O)c2n1 (stereo partly specified) yielded outcome of inactive
